Items are presented alongside their recorded viability, T/C.
System: 422866-222-R5-J1-PDC complex spheroids viability;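 also: spheroids exposed to compounds for 7 days; 100% = DMSO vehicle control viability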
Test: Anticancer human tumor 422866-222-R5-J1-PDC patient-derived pancreatic adenocarcinoma cell line growth inhibition [RAS]
Conditions: second compound 0.03 µM; first compound 0.316 µM; stronger effect = lower value
Description: RAS pathway inhibitors in Combinations in Complex Spheroids A high-throughput screen of multi-cell type tumor spheroids was designed to identify active combinations of RAS pathway inhibitors and targeted small molecules. Complex spheroids include a stromal component modeled by human endothelial cells (HUVEC) and fibroblasts modeled by human mesenchymal stem cells (MSCs). […] Compounds. […] If the clinical Cmax for an agent had not been determined, the highest concentration tested was 10 microM. […]

State the recorded viability, T/C for this entry: CC(Nc1ccc2c(c1)OCCn1cc(N3C(=O)OCC3C(F)F)nc1-2)C(N)=O (centres undefined) + CCn1c(-c2cccnc2C(C)OC)c2c3cc(ccc31)N1CCOC(CC(NC(=O)C(C(C)C)N(C)C(=O)C3(F)CCN(C(=O)C#CC(C)(C)N(C)C)CC3)C(=O)N3CCCC(N3)C(=O)OCC(C)(C)C2)C1 8.08%

State the recorded viability, T/C for this entry: CC(=O)OC12COC1CC(O)C1(C)C(=O)C(O)C3=C(C)C(OC(=O)C(O)C(NC(=O)OC(C)(C)C)c4ccccc4)CC(O)(C(OC(=O)c4ccccc4)C21)C3(C)C (centres undefined) + CCn1c(-c2cc(N3CCN(C)CC3)cnc2C(C)OC)c2c3cc(ccc31)-c1csc(n1)CC(NC(=O)C1CC1C)C(=O)N1CCCC(N1)C(=O)OCC(C)(C)C2 16.1%

State the recorded viability, T/C for this entry: O=C(c1ccc(F)c(F)c1Nc1ccc(I)cc1F)N1CC(O)([C@@H]2CCCCN2)C1 + CCn1c(-c2cc(N3CCN(C)CC3)cnc2C(C)OC)c2c3cc(ccc31)-c1csc(n1)CC(NC(=O)C1CC1C)C(=O)N1CCCC(N1)C(=O)OCC(C)(C)C2 13.9%

Now let's try a different one.
State the recorded viability, T/C for this entry: CCC(CC)c1cc(NC2CCC(N)C2)n2nccc2n1 (centres undefined) + CCn1c(-c2cccnc2C(C)OC)c2c3cc(ccc31)N1CCOC(CC(NC(=O)C(C(C)C)N(C)C(=O)C3(F)CCN(C(=O)C#CC(C)(C)N(C)C)CC3)C(=O)N3CCCC(N3)C(=O)OCC(C)(C)C2)C1 22.8%
